# Assay info: RP, Thermo Scientific Acclaim RSLC 120 C18, 100 × 2.1 mm, 2.2 µm, 30 °C, 0.2 mL/min, estimated dead time 1.1 min; A: 90% water + 10% methanol + 0.01% formic acid + 5 mM ammonium formate, pH 3.61; B: methanol + 0.01% formic acid + 5 mM ammonium formate, pH 3.61; gradient (min/%B) 0/1 1/1 2/39 13/99.9 15/99.9 15.1/1 20.1/1
# Experimental context: stereoisomer not certain
Property: LC retention time; scope: individual compounds
Respond with the bare value in min.

[[record]]
compound = "CCCCCn1cc(C(=O)c2cccc3ccccc23)c2cccc(O)c21 [JWH-018-M-7-OH-Ind]"
units = "min"
numeric_readout = 11.8


The recorded LC retention time for CC1=C(C(=O)O)N2C(=O)C(NC(=O)C(N)c3ccccc3)C2SC1 (stereo unspecified) [Cefalexin] is 4.08

The measured LC retention time associated with CCOC1OC(C(=O)O)C(O)C(O)C1O (stereo unspecified) [EtG (Na)] reads 1.52

The compound CC12CCC(=O)C=C1CCC1C2CCC2(C)C1CCC2(C)O (stereo not drawn) [Testosterone- 17-alpha-methyl] showed LC retention time equal to 10.4

CNc1cnn(-c2cccc(C(F)(F)F)c2)c(=O)c1Cl [Norflurazon] has a reported LC retention time of 8.51

According to the records, this compound CCCCC(CC)COC(=O)c1ccccc1C(=O)OCC(CC)CCCC (stereo unspecified) [Phthalate-bis-(2-ethylhexyl). DEHP] displays LC retention time of 15

// field: LC retention time; key: C[N+]12CCC(CC1)C(OC(=O)C(O)(c1ccccc1)c1ccccc1)C2 (stereo unspecified) [Clidinium (I+)] ; value = 5.84
